ASSAY COMMENT: folding enthalpy; higher = less favourable; fluorescence melt of hairpins on a sequencing array, two-state fit
RECORDED CONDITIONS: sodium 0.088 M
Each entry below lists one item and its recorded folding enthalpy value.

[
  {
    "SEQUENCE CONTENT": "GCGAAGCGAAAGCTGTGC ((..(((....)))..))",
    "MEASUREMENT UNIT": "kcal/mol",
    "folding enthalpy": -8.75
  },
  {
    "SEQUENCE CONTENT": "GGCAGACGAAAGTCAGCC (((.(((....))).)))",
    "MEASUREMENT UNIT": "kcal/mol",
    "folding enthalpy": -32.8
  },
  {
    "SEQUENCE CONTENT": "GATCGCCTGTGCGATC ((((((....))))))",
    "MEASUREMENT UNIT": "kcal/mol",
    "folding enthalpy": -36.7
  },
  {
    "SEQUENCE CONTENT": "GAGATACGAAAGTACTC (((.(((....))))))",
    "MEASUREMENT UNIT": "kcal/mol",
    "folding enthalpy": -19.9
  },
  {
    "SEQUENCE CONTENT": "GCAGACGAAAGTCCTTGC ((((((....)))..)))",
    "MEASUREMENT UNIT": "kcal/mol",
    "folding enthalpy": -12.3
  },
  {
    "SEQUENCE CONTENT": "GGCTCCGAAAGGAATGCC ((((((....)))..)))",
    "MEASUREMENT UNIT": "kcal/mol",
    "folding enthalpy": -26.9
  },
  {
    "SEQUENCE CONTENT": "GCAGGGCGAAAGCGCCGC ((.(.((....)).).))",
    "MEASUREMENT UNIT": "kcal/mol",
    "folding enthalpy": -15.7
  },
  {
    "SEQUENCE CONTENT": "GCTGAGCGAAAGCCCCGC ((.(.((....)).).))",
    "MEASUREMENT UNIT": "kcal/mol",
    "folding enthalpy": -12
  },
  {
    "SEQUENCE CONTENT": "GTATACGAAAGTACATAC ((((((....)))..)))",
    "MEASUREMENT UNIT": "kcal/mol",
    "folding enthalpy": -10.6
  },
  {
    "SEQUENCE CONTENT": "GATCTACAGTAGATC ((((((...))))))",
    "MEASUREMENT UNIT": "kcal/mol",
    "folding enthalpy": -38.7
  },
  {
    "SEQUENCE CONTENT": "GAGAGTGGAAACGCTCTC (((((.(....).)))))",
    "MEASUREMENT UNIT": "kcal/mol",
    "folding enthalpy": -36.8
  },
  {
    "SEQUENCE CONTENT": "GCGTGGTCGAAAGACCGC (((..(((....))))))",
    "MEASUREMENT UNIT": "kcal/mol",
    "folding enthalpy": -10.9
  },
  {
    "SEQUENCE CONTENT": "GATCTGTCCGCAGATC ((((((....))))))",
    "MEASUREMENT UNIT": "kcal/mol",
    "folding enthalpy": -43.6
  },
  {
    "SEQUENCE CONTENT": "GAACCAGAAATGGTTC ((((((....))))))",
    "MEASUREMENT UNIT": "kcal/mol",
    "folding enthalpy": -33.6
  },
  {
    "SEQUENCE CONTENT": "GAAACGACGAAAGTCTTC (((..(((....))))))",
    "MEASUREMENT UNIT": "kcal/mol",
    "folding enthalpy": -9.41
  },
  {
    "SEQUENCE CONTENT": "GATCGTTGCGACGATC ((((((....))))))",
    "MEASUREMENT UNIT": "kcal/mol",
    "folding enthalpy": -41.2
  },
  {
    "SEQUENCE CONTENT": "GCCGGGCGAAAGCCCCGC ((.((((....)))).))",
    "MEASUREMENT UNIT": "kcal/mol",
    "folding enthalpy": -16.2
  },
  {
    "SEQUENCE CONTENT": "GTACACGAAAGTGTAC ((((((....))))))",
    "MEASUREMENT UNIT": "kcal/mol",
    "folding enthalpy": -30.2
  },
  {
    "SEQUENCE CONTENT": "GGTCACGAAAGTGTTACC ((((((....)))..)))",
    "MEASUREMENT UNIT": "kcal/mol",
    "folding enthalpy": -17.1
  },
  {
    "SEQUENCE CONTENT": "GAGGCTCCGAAAGGACTC (((..(((....))))))",
    "MEASUREMENT UNIT": "kcal/mol",
    "folding enthalpy": -15.5
  },
  {
    "SEQUENCE CONTENT": "GATCCCCCATGGGATC ((((((....))))))",
    "MEASUREMENT UNIT": "kcal/mol",
    "folding enthalpy": -36.5
  },
  {
    "SEQUENCE CONTENT": "GGACACGAAAGTGGATCC ((((((....)))..)))",
    "MEASUREMENT UNIT": "kcal/mol",
    "folding enthalpy": -15.6
  },
  {
    "SEQUENCE CONTENT": "GCTGTGCGAAAGCTCGGC ((.(.((....)).).))",
    "MEASUREMENT UNIT": "kcal/mol",
    "folding enthalpy": -24.6
  },
  {
    "SEQUENCE CONTENT": "GCGTCAGGAAACTGGTGC ((..(((....)))..))",
    "MEASUREMENT UNIT": "kcal/mol",
    "folding enthalpy": -27.1
  },
  {
    "SEQUENCE CONTENT": "GCAGTCGAAAGACTATGC ((((((....)))..)))",
    "MEASUREMENT UNIT": "kcal/mol",
    "folding enthalpy": -17.8
  },
  {
    "SEQUENCE CONTENT": "GATCCACTCGTGGATC ((((((....))))))",
    "MEASUREMENT UNIT": "kcal/mol",
    "folding enthalpy": -45.8
  },
  {
    "SEQUENCE CONTENT": "GATCGTAGGGACGATC ((((((....))))))",
    "MEASUREMENT UNIT": "kcal/mol",
    "folding enthalpy": -31.6
  },
  {
    "SEQUENCE CONTENT": "GTTTTAGGAAACTAAAGC (.(((((....))))).)",
    "MEASUREMENT UNIT": "kcal/mol",
    "folding enthalpy": -15
  },
  {
    "SEQUENCE CONTENT": "GGGTTCGAAAGAACCCCC ((((((....)))..)))",
    "MEASUREMENT UNIT": "kcal/mol",
    "folding enthalpy": -9.24
  },
  {
    "SEQUENCE CONTENT": "GTTAAGCGAAAGCTAAAC (((.(((....))).)))",
    "MEASUREMENT UNIT": "kcal/mol",
    "folding enthalpy": -19.9
  },
  {
    "SEQUENCE CONTENT": "GATCAAACTATTGATC ((((((....))))))",
    "MEASUREMENT UNIT": "kcal/mol",
    "folding enthalpy": -30.1
  },
  {
    "SEQUENCE CONTENT": "GCACCGCGAAAGCACTGC (((..((....))..)))",
    "MEASUREMENT UNIT": "kcal/mol",
    "folding enthalpy": -8.63
  },
  {
    "SEQUENCE CONTENT": "GCTGTAGGAAACTACAAC (.(((((....))))).)",
    "MEASUREMENT UNIT": "kcal/mol",
    "folding enthalpy": -19.2
  },
  {
    "SEQUENCE CONTENT": "GTCGACGAAAGTCACGAC ((((((....)))..)))",
    "MEASUREMENT UNIT": "kcal/mol",
    "folding enthalpy": -18.6
  },
  {
    "SEQUENCE CONTENT": "GTCCACCCGAAAGGGGAC (((..(((....))))))",
    "MEASUREMENT UNIT": "kcal/mol",
    "folding enthalpy": -18.5
  },
  {
    "SEQUENCE CONTENT": "GCTGGCGAAAGCCTCAGC ((((((....)))..)))",
    "MEASUREMENT UNIT": "kcal/mol",
    "folding enthalpy": -14.7
  },
  {
    "SEQUENCE CONTENT": "CGGTCGGAAACGATACCG ((((((....)))..)))",
    "MEASUREMENT UNIT": "kcal/mol",
    "folding enthalpy": -26.9
  },
  {
    "SEQUENCE CONTENT": "GCTACCGGAAACAGTAGC (((((.(....).)))))",
    "MEASUREMENT UNIT": "kcal/mol",
    "folding enthalpy": -34.3
  },
  {
    "SEQUENCE CONTENT": "GCATCAGGAAACCAATGC ((((..(....)..))))",
    "MEASUREMENT UNIT": "kcal/mol",
    "folding enthalpy": -12.1
  },
  {
    "SEQUENCE CONTENT": "GGCTTGGGAAACCGAGTC (.((.((....)).)).)",
    "MEASUREMENT UNIT": "kcal/mol",
    "folding enthalpy": -27.4
  },
  {
    "SEQUENCE CONTENT": "GCATCGCGAAAGCGAAGC ((.((((....)))).))",
    "MEASUREMENT UNIT": "kcal/mol",
    "folding enthalpy": -19.1
  },
  {
    "SEQUENCE CONTENT": "GCTTTTCGAAAGAATAGC (((.(((....))).)))",
    "MEASUREMENT UNIT": "kcal/mol",
    "folding enthalpy": -29.3
  },
  {
    "SEQUENCE CONTENT": "GTTTCTGGAAACAGAAAC (((((((....)))))))",
    "MEASUREMENT UNIT": "kcal/mol",
    "folding enthalpy": -43.3
  },
  {
    "SEQUENCE CONTENT": "GGTTCCGGAAACGGAGCC ((.((((....)))).))",
    "MEASUREMENT UNIT": "kcal/mol",
    "folding enthalpy": -41.6
  },
  {
    "SEQUENCE CONTENT": "GTCATCGAAAGATTCGAC ((((((....)))..)))",
    "MEASUREMENT UNIT": "kcal/mol",
    "folding enthalpy": -12.3
  },
  {
    "SEQUENCE CONTENT": "GATCATACGAATGATC ((((((....))))))",
    "MEASUREMENT UNIT": "kcal/mol",
    "folding enthalpy": -34.4
  },
  {
    "SEQUENCE CONTENT": "GATTGCGGAAACGTAATC ((((.((....)).))))",
    "MEASUREMENT UNIT": "kcal/mol",
    "folding enthalpy": -38.8
  },
  {
    "SEQUENCE CONTENT": "GTTCGGGGAAACCCGAGC (.(((((....))))).)",
    "MEASUREMENT UNIT": "kcal/mol",
    "folding enthalpy": -25.5
  },
  {
    "SEQUENCE CONTENT": "GATCCATGCTGGATC ((((((...))))))",
    "MEASUREMENT UNIT": "kcal/mol",
    "folding enthalpy": -35.3
  },
  {
    "SEQUENCE CONTENT": "GTCACCGAAAGGTAGAC ((((((....))).)))",
    "MEASUREMENT UNIT": "kcal/mol",
    "folding enthalpy": -18.9
  }
]
